Target: mouse ELP2 protein (Mus musculus)
Sequence (Q91WG4 whole entry): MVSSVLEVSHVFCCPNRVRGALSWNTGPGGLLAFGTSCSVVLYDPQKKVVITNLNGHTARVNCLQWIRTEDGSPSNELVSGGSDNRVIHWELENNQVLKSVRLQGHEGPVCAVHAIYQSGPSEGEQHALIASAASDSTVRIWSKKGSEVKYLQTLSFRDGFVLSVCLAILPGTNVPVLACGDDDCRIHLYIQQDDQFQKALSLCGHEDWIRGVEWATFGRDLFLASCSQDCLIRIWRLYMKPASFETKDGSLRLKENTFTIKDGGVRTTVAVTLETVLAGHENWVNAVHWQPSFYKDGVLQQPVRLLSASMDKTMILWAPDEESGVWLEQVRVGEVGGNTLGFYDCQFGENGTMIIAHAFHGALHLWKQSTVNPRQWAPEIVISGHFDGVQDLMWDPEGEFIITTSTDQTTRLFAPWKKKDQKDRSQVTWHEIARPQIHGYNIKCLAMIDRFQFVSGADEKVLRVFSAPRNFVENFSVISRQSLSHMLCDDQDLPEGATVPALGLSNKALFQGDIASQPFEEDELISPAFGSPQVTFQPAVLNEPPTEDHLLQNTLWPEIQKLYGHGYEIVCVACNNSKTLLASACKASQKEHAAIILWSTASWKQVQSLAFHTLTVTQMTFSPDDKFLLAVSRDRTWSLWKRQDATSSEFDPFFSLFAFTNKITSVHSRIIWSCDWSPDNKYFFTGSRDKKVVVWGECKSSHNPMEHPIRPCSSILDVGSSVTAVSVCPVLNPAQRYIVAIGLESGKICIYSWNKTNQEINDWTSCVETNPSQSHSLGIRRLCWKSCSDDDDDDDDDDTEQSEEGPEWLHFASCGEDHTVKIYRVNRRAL
Test: Surface plasmon resonance (SPR) affinity analysis, compounds fixed on the chip
Format: binding
Conditions: SPR, Elp2 protein 200 nM to 3200 nM passed over the immobilized compound; read-out: Avg Koff
observation_type: koff (s⁻¹)
Reply numerically in s⁻¹, unit not repeated.

Param item = COCn1ncnc1NCCn1c(C)cc(O)cc1=O [4#] ; retrieve measured koff.
0.342

Repeat with COc1cccc(N2Cc3nn(Cc4ccccc4Cl)c(=O)n3C2=O)c1 [6#]
0.415

Attention now shifts to the item below.
Entry COc1cc(CCN)c(-c2csc(-c3ccc(O)cc3)n2)cc1OC [5#] has what koff?
0.0122
